Cited source for all entries: ChEMBL document CHEMBL3988442

This listing pairs molecules with measured Percent Effect.
System: Wolbachia pipientis
Assay: Anti-Wolbachia Cell-Based Screen
Type: functional
Design: scale not given: in the data most compounds retested in dose-response had high values
Conditions: 5 µM
Screen size: about 48,000 compounds; about 13,000 (27%) showed an effect of 50% or more. The list shows a part of the results.
property: Percent Effect (%)

>>> measured_result("O=C(O)C(F)(F)F.O=C(O)C(F)(F)F.O=C1COC2(CCN(Cc3cccnc3)CC2)CN1c1ccccc1")
95.43
>>> measured_result("COc1ccc(CC2(C(=O)O)CCN(c3nc(C)ncc3C)CC2)cc1")
-10.05
>>> measured_result("COC[C@@]12CCC[C@@H]1CN(C(=O)Cc1ccco1)C2")
-55.3
>>> measured_result("COc1ccc(CNCC2CCN(CC(C)O)CC2)c2ccccc12 (stereo unspecified)")
-9.036
>>> measured_result("O=C1CC2(CCCCC2)C(=O)N1CC(O)COCc1ccccc1F (stereo unspecified)")
-27.41
>>> measured_result("Cc1ccc(N2CC3(COCCN(Cc4ccncc4)C3)OCC2=O)s1.O=C(O)C(F)(F)F.O=C(O)C(F)(F)F (stereo unspecified)")
7.716
>>> measured_result("CCCc1cc(C(=O)N2C[C@H]3CCC[C@@]3(CO)C2)[nH]n1")
14.56
>>> measured_result("CCN(C)C1COC2(CCN(C(=O)c3ccc4[nH]ccc4c3)CC2)C1 (stereo unspecified)")
-14.16
>>> measured_result("NC(=O)c1ccc(N2CCN(Cc3c(Cl)cncc3Cl)CC2)nc1")
-3.438
>>> measured_result("COCCC(=O)N1C[C@H]2CCC[C@@]2(COC)C1")
114
>>> measured_result("CCCc1cc(C(=O)N2CCCN(c3cccnn3)CC2)[nH]n1")
-4.631
>>> measured_result("Cc1cccc(NC(=O)NCC2(N3CCOCC3)CCSC2)c1 (stereo unspecified)")
9.501
>>> measured_result("Cc1ccccc1-c1cccc(CN2C[C@H]3C(=O)NC[C@@]3(C(=O)O)C2)c1")
6.685
>>> measured_result("O=C(O)C(F)(F)F.O=C1COC2(CCN(Cc3nccs3)CC2)CN1c1ccccc1")
109.8
>>> measured_result("CCOCC(=O)N1C[C@H]2CCC[C@@]2(COC)C1")
105.6
>>> measured_result("Cc1cc(C)cc(-c2cccc(CC3(C(=O)O)CCOCC3)c2)c1")
-21.94
>>> measured_result("O=C(O)C(F)(F)F.O=C(O)C(F)(F)F.O=C1COC2(CCN(Cc3ccncc3)CC2)CN1c1ccccc1")
106.6
>>> measured_result("CN1CC(=O)N(c2cccc(F)c2)CC12CCN(Cc1ccncc1)C2.O=C(O)C(F)(F)F.O=C(O)C(F)(F)F (stereo unspecified)")
-24.86
>>> measured_result("CN1CC(=O)N(c2ccccc2)CC12CCN(Cc1nccs1)C2.O=C(O)C(F)(F)F.O=C(O)C(F)(F)F (stereo unspecified)")
-23.26
>>> measured_result("c1ccc(-c2cc(CC3(NCc4ncc[nH]4)COC3)no2)cc1")
-5.291
>>> measured_result("CC(C)c1noc(CCCC(=O)N2CCN(C)CC2c2ccccc2)n1 (stereo unspecified)")
5.23

----------
The reader will find reported Percent Effect values listed item by item below.
Test system: Wolbachia pipientis
Assay: Anti-Wolbachia Cell-Based Screen
Format: functional
Set-up: scale not given: in the data most compounds retested in dose-response had high values
Conditions: 5 µM
About 13,000 (27%) of roughly 48,000 compounds showed an effect of 50% or more. This is one part of the list.
property: Percent Effect

>>> measured_result("COc1ncnc2c1CCN(Cc1nccs1)CC2.O=C(O)C(F)(F)F")
"2.06%"
>>> measured_result("COc1c(C2CCCN2C(=O)c2ccnc(N(C)C)c2)c(C)nn1C (stereo not drawn)")
"3.661%"
>>> measured_result("CCc1nc2c(N3CCC4(CC3)CC(=O)N(CC(C)C)C4)ncnc2o1")
"-4.027%"
>>> measured_result("CS(=O)(=O)N1C[C@H](C(=O)Nc2cccnc2)C[C@H]2OCC[C@H]21.O=C(O)C(F)(F)F")
"-10.82%"
>>> measured_result("COCCN(C)C[C@@H]1CN(C(=O)c2cccc(C(F)(F)F)c2)C[C@@H]1CO")
"-9.662%"
>>> measured_result("COCCN(C)C[C@@H]1CN(C(=O)c2cccc(C#N)c2)C[C@@H]1CO")
"104.9%"
>>> measured_result("Cc1nn(C)c(C)c1C1CCCN1C(=O)c1ccnc(N(C)C)c1 (stereo not drawn)")
"114%"
>>> measured_result("CCCNC(=O)CN1CCC(NCc2c(C)nn(C)c2OC)CC1")
"-12.27%"
>>> measured_result("Cc1ccc2c(c1C)OCC2NCc1cccc(C#N)c1 (stereo not drawn)")
"-16%"
>>> measured_result("CCCc1cc(=O)[nH]c(-c2cccc(CN3CCN4CCCC4C3)c2)n1 (stereo not drawn)")
"-7.506%"
>>> measured_result("Cc1ccc(-c2c[nH]c([C@@H]3COCCN3Cc3ncc[nH]3)n2)cc1")
"0.7932%"
>>> measured_result("CCCOCC1CCN(C(=O)Cn2cccc(OC)c2=O)C1 (stereo not drawn)")
"-15.28%"
>>> measured_result("O=C(COC1CCCCC1)Nc1ccn(Cc2ccccn2)n1")
"-1.457%"
>>> measured_result("Cc1cc(CN(C)C(=O)NC2CCS(=O)(=O)C2)no1 (stereo not drawn)")
"4.321%"
>>> measured_result("CN(CCO)C[C@@H]1CN(C(=O)c2cccc(OC(F)F)c2)C[C@@H]1CO")
"95.7%"
>>> measured_result("Cc1nn(C)c(Cl)c1C1CCCN1C(=O)c1ccnc(N(C)C)c1 (stereo not drawn)")
"115.9%"
>>> measured_result("Cc1c(CS(C)(=O)=O)cccc1NCCCC1CCCC1")
"-1.975%"
>>> measured_result("Cc1nn(C)c(Cl)c1C1CCCN1C(=O)c1cccc(C#N)c1 (stereo not drawn)")
"117.2%"
>>> measured_result("CC(C)(C)c1coc([C@@H]2COCCN2Cc2ncc[nH]2)n1")
"-0.9304%"
>>> measured_result("Cc1c[nH]nc1C1CCCN1Cc1ncc[nH]1.O=CO (stereo not drawn)")
"85.61%"
>>> measured_result("Cc1nn(C)c(C)c1C1CCCN1C(=O)c1cnc2n[nH]c(C)c2c1 (stereo not drawn)")
"-6.27%"
>>> measured_result("Cc1cc(NC(N)=O)ccc1C(=O)N(C)C")
"10.57%"
>>> measured_result("Cc1c[nH]nc1C1CCCN1Cc1nccn1C.O=CO (stereo not drawn)")
"95.89%"

----------
// values below are reported Percent Effect
System: Wolbachia pipientis
Assay: Anti-Wolbachia Cell-Based Screen
Format: functional
Parameters: scale not given: in the data most compounds retested in dose-response had high values
Details: 5 µM
Among all 48,000 compounds or so, about 13,000 (27%) showed an effect of 50% or more. This is one part of the list.
property: Percent Effect (%)

>>> measured_result("Cn1cnnc1SCC(=O)N1C[C@H]2CC[C@@H]1CN(Cc1cccnc1)C2")
-4.246
>>> measured_result("COc1ccccc1CNC(=O)Cn1ncc2c1c(C)nn2C")
14.16
>>> measured_result("CCn1c(C)nnc1CN(C)C1CCN(Cc2ccccn2)C1 (stereo unspecified)")
15.92
>>> measured_result("CCn1nc(C)c2c1cnn2CC(=O)NC(C)c1cccc(OC)c1 (stereo unspecified)")
108.9
>>> measured_result("COc1ccc(NC(=O)Cn2nc(C)c(C)cc2=O)c(OC)c1")
-17.24
>>> measured_result("COc1cccc(C(CO)NC(=O)Cc2cccc(C)c2)c1 (stereo unspecified)")
-8.321
>>> measured_result("CCC(C)NC(=O)Cn1ncc2c1c(C)nn2CC (stereo unspecified)")
78.16
>>> measured_result("CCn1nc(C)c2c1cnn2CC(=O)Nc1ccc(OC)cc1C")
97.13
>>> measured_result("CN1CCN(Cc2n[nH]c(=O)n2CC2CCCCC2)CC1")
12.01
>>> measured_result("CC(C)[C@@H]1CN(Cc2ccccn2)C[C@H]1NS(=O)(=O)N(C)C")
-0.7917
>>> measured_result("Cn1ccnc1CN1C(=O)CO[C@H]2CN(Cc3ccccc3O)C[C@H]21")
-13.53

----------
Test system: Wolbachia pipientis
Assay: Anti-Wolbachia Cell-Based Screen
Assay type: functional
Design: scale not given: in the data most compounds retested in dose-response had high values
Conditions: 5 µM
About 13,000 (27%) of roughly 48,000 compounds showed an effect of 50% or more. The list shows a part of the results.
property: Percent Effect (%)

>>> measured_result("Cn1ncc2c(=O)[nH]c(CN3CCCc4cc(F)ccc43)nc21")
-1.731
>>> measured_result("CCN1CC2(CCC1=O)CCN(Cc1cc(F)ccc1Cl)CC2")
-6.305
>>> measured_result("CN1Cc2cc(F)ccc2N(CC(C)(C)O)CCC1=O")
116.8
>>> measured_result("CC(C)NC(=O)N1CCC2(CC1)[C@@H]1CN(C(=O)N(C)C)C[C@@H]1C(=O)N2C")
-31.71
>>> measured_result("CCOC(=O)[C@H]1[C@@H](O)C(=O)N(C)C12CCN(C(=O)C(CC)CC)CC2")
87.69
